# SYSTEM_UNDER_TEST: hERG (KCNH2) (Homo sapiens)
# ASSAY_NAME: Inhibition of human ERG expressed in CHO cells at 30 uM at -80 mV holding potential by automated patch clamp assay relative to control
# Format: toxicity, cell-based
# MEASUREMENT_CONDITIONS: CHO cells expressing human ERG
MEASURED_METRIC: inhibition at 30 µM (%)
Answers are plain numbers, in %.

Would you please look over these solved cases?
1) CC(C)N1C[C@H](O)C[C@]12CCN(C1CCCCC1)C2=O	0
2) CCNC(=O)c1ccc(-c2ccc(CN3CCCC34CCN(C3CCCCC3)C4=O)cc2)cn1 (stereo unspecified)	15
3) CC(C1CCC1)N1C[C@H](O)C[C@]12CCN(C1CCCCC1)C2=O (stereo partly specified)	-15
4) O=C1N(C2CCCCC2)CC[C@]12C[C@@H](O)CN2Cc1ccc(Cl)cc1	14
5) O=C1N(C2CCCCC2)CCC12CCCN2Cc1ccc(Cl)cc1 (stereo unspecified)	45

// switching to the query compound
Request: What inhibition at 30 µM appears in the records for this compound with hERG (KCNH2) (Homo sapiens)? O=C1N(C2CCCCC2)CCC12C[C@@H](O)CN2Cc1ccc(Cl)cc1 (stereo partly specified)
Response: 27

----------
# SYSTEM_UNDER_TEST: hERG (KCNH2) (Homo sapiens, UniProt Q12809)
# Sequence (Q12809 whole entry): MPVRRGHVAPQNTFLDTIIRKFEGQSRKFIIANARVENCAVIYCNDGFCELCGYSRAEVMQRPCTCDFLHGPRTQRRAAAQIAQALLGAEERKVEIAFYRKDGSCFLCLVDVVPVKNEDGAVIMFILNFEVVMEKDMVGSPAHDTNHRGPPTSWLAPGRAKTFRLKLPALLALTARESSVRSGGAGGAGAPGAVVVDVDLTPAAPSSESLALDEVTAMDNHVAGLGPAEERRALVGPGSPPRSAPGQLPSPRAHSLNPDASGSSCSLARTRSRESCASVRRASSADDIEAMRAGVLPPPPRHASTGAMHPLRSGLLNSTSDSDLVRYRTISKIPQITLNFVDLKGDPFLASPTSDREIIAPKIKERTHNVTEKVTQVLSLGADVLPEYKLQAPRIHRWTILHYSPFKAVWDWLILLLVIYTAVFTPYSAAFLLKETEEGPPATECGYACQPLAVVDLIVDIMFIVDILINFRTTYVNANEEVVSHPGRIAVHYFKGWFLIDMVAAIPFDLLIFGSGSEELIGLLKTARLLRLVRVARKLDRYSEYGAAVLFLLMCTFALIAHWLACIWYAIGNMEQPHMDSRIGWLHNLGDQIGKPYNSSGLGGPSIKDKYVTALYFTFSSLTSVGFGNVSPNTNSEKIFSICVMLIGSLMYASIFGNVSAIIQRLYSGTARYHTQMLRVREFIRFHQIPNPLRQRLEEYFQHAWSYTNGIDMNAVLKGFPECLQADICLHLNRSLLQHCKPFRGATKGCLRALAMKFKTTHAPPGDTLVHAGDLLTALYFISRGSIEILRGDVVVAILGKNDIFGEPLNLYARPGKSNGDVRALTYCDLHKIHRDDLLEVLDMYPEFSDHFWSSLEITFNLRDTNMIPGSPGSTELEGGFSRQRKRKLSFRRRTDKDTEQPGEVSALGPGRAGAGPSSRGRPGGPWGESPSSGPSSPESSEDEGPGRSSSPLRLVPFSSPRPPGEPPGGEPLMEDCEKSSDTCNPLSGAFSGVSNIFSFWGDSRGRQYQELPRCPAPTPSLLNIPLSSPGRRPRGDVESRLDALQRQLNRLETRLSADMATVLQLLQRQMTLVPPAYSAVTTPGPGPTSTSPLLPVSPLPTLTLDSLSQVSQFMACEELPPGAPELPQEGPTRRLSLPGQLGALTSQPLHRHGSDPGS
# ASSAY_NAME: Inhibition of human ERG expressed in CHO cells at 30 uM at -80 mV holding potential by automated patch clamp assay relative to control
# Type: toxicity, cell-based
# MEASUREMENT_CONDITIONS: CHO cells expressing human ERG
Class 1: inhibition at 30 µM at least 10%. Class -1: inhibition at 30 µM below 10%.

Past entries and their recorded results:
1. O=C1N(C2CCCCC2)CC[C@]12C[C@H](F)CN2Cc1ccc(Cl)cc1	1
2. CC(C1CCCCC1)N1C[C@H](O)C[C@]12CCN(C1CCCCC1)C2=O (stereo partly specified)	1

Request: Reported inhibition at 30 µM at or above 10%? "CCN1C[C@@H](O)C[C@]12CCN(C1CCCCC1)C2=O"
Response: 1

Request: Reported inhibition at 30 µM at or above 10%? "CNC(=O)c1ccc(-c2ccc(CN3C[C@@H](F)C[C@]34CCN(C3CCCCC3)C4=O)cc2)cn1"
Response: 1

Request: Reported inhibition at 30 µM at or above 10%? "CNC(=O)c1ccc(-c2ccc(CN3C[C@H](O)C[C@]34CCN(C3CCCCC3)C4=O)cc2)cn1"
Response: -1

Request: Reported inhibition at 30 µM at or above 10%? CC1(O)CN(Cc2ccc(Cl)cc2)[C@@]2(CCN(C3CCCCC3)C2=O)C1 (stereo partly specified)
Response: 1

Request: Reported inhibition at 30 µM at or above 10%? O=C1N(C2CCCCC2)CCC12CCCN2Cc1ccc(C(F)(F)F)cc1 (stereo unspecified)
Response: 1

----------
# SYSTEM_UNDER_TEST: PXR (NR1I2) (Homo sapiens)
# ASSAY_NAME: Activation of human PXR assessed as induction of PXR activity at 10 uM relative to control
# MEASUREMENT_CONDITIONS: read-out: Activity
Field: activity at 10 µM. Provide a value for each of the molecules that follow.
Give bare numbers, in %.

Would you please look over these solved cases?
1. O=C1N(C2CCCCC2)CC[C@]12C[C@@H](O)CN2Cc1ccc(Cl)cc1	42
2. CCNC(=O)c1ccc(-c2ccc(CN3CCCC34CCN(C3CCCCC3)C4=O)cc2)cn1 (stereo not given)	13

Please state activity at 10 µM for every molecule in the list that follows.
1. CC(C1CCC1)N1C[C@H](O)C[C@]12CCN(C1CCCCC1)C2=O (stereo not given in full)
2. CC(C)N1C[C@H](O)C[C@]12CCN(C1CCCCC1)C2=O
3. O=C1N([C@H]2CC[C@H](O)CC2)CCC12CCCN2Cc1ccc(Cl)cc1 (stereo not given in full)

Response:
4.5
-0.5
0.5

----------
# SYSTEM_UNDER_TEST: 11-beta-hydroxysteroid dehydrogenase 1 (Homo sapiens)
# ASSAY_NAME: Inhibition of 11beta-HSD1 (unknown origin) using 3H-cortisone as substrate by scintillation proximity assay
MEASURED_METRIC: pIC50
Give bare numbers, as −log10 of the molar value.

Please state pIC50 for every compound in the list that follows.
1. O=C1N(C2CCCCC2)CC[C@]12C[C@@H](O)CN2CC1CCCCC1
2. CC1(O)CN(Cc2ccc(Cl)cc2)[C@@]2(CCN(C3CCCCC3)C2=O)C1 (stereo not given in full)
3. O=C1N(C2CCCCC2)CC[C@]12C[C@@H](O)CN2CC1CCCC1
4. CCNC(=O)c1ccc(-c2ccc(CN3CCCC34CCN(C3CCCCC3)C4=O)cc2)cn1 (stereo not given)
5. CNC(=O)c1ccc(-c2ccc(CN3C[C@H](O)C[C@]34CCN(C3CCCCC3)C4=O)cc2F)cn1
6. N#Cc1ccc(CN2CCCC23CCN(C2CCCCC2)C3=O)cc1 (stereo not given)
7. CNC(=O)c1ccc(-c2ccc(CN3C[C@H](O)C[C@]34CCN(C3CCCCC3)C4=O)cc2)cn1
8. CC(C1CC1)N1C[C@H](O)C[C@]12CCN(C1CCCCC1)C2=O (stereo not given in full)

Response:
1: 7.82; 2: 6.00; 3: 7.52; 4: 7.64; 5: 7.89; 6: 7.54; 7: 8.52; 8: 6.40

Request: Fill in: pIC50 of O=C1N(C2CCCCC2)CCC12CCCN2Cc1ccc(C(F)(F)F)cc1 (stereo not given) is ___
Response: 8.15

----------
# SYSTEM_UNDER_TEST: PXR (NR1I2) (Homo sapiens, UniProt O75469)
# Sequence (O75469 whole entry): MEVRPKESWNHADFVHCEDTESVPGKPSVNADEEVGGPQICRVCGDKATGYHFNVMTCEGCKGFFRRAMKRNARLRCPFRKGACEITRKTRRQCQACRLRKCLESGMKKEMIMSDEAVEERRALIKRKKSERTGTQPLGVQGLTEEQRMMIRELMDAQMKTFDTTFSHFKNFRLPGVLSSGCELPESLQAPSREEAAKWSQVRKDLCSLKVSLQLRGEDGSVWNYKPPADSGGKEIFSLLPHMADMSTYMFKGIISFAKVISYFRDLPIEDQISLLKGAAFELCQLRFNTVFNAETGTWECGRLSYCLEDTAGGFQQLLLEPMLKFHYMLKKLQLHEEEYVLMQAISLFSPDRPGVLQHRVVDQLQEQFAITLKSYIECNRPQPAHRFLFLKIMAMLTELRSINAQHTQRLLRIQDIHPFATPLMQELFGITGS
# ASSAY_NAME: Activation of human PXR assessed as induction of PXR activity at 10 uM relative to control
# MEASUREMENT_CONDITIONS: read-out: Activity
hey, just use Yes if measured activity at 10 µM is less than 10%, otherwise No

Past entries and their recorded results:
1) CC(C1CC1)N1C[C@H](O)C[C@]12CCN(C1CCCCC1)C2=O (stereo partly specified)	Yes
2) O=C1N(C2CCCCC2)CCC12CCCN2Cc1ccc(Cl)cc1 (stereo unspecified)	No

Request: For this compound, is activity at 10 µM lower than 10%? CC1(O)CN(Cc2ccc(Cl)cc2)[C@@]2(CCN(C3CCCCC3)C2=O)C1 (stereo partly specified)
Response: Yes

Request: For this compound, is activity at 10 µM lower than 10%? "O=C1N(C2CCCCC2)CC[C@@]12C[C@H](O)CN2Cc1ccc(Cl)cc1"
Response: No

Request: For this compound, is activity at 10 µM lower than 10%? "CNC(=O)c1ccc(-c2ccc(CN3C[C@@H](F)C[C@]34CCN(C3CCCCC3)C4=O)cc2)cn1"
Response: No

Request: For this compound, is activity at 10 µM lower than 10%? "O=C1N(C2CCCCC2)CC[C@]12C[C@@H](O)CN2CC1CCCCC1"
Response: Yes

----------
Field: IC50. Provide a value for each of the compounds that follow.
# SYSTEM_UNDER_TEST: 11-beta-hydroxysteroid dehydrogenase 1 (Homo sapiens)
# ASSAY_NAME: Inhibition of 11beta-HSD1 in human PBMC cells using 3H-cortisone as substrate assessed as conversion of cortisone to cortisol by ELISA
# Format: cell-based

Would you please look over these solved cases?
1) CCNC(=O)c1ccc(-c2cc(CN3C[C@H](O)C[C@]34CCN(C3CCCCC3)C4=O)ccc2F)cn1	> 37 nM
2) CC(C)N1C[C@H](O)C[C@]12CCN(C1CCCCC1)C2=O	> 37 nM

// switching to the query compound
Request: Fill in: IC50 of "N#Cc1cccc(-c2ccc(CN3C[C@H](O)C[C@]34CCN(C3CCCCC3)C4=O)cn2)c1" is ___
Response: > 37 nM

----------
# SYSTEM_UNDER_TEST: 11-beta-hydroxysteroid dehydrogenase 1 (Homo sapiens, UniProt P28845)
# Sequence (P28845 whole entry): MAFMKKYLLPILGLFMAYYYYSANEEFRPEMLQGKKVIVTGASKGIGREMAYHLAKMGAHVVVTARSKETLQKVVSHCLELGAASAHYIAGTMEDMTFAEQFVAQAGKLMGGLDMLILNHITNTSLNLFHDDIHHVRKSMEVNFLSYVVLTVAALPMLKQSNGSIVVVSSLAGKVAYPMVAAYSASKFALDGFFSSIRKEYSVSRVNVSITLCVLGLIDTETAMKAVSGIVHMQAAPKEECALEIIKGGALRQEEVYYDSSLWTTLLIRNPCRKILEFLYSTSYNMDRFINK
# ASSAY_NAME: Inhibition of 11beta-HSD1 in human PBMC cells using 3H-cortisone as substrate assessed as conversion of cortisone to cortisol by ELISA
# Assay type: cell-based
MEASURED_METRIC: IC50

Would you please look over these solved cases?
1. CCNC(=O)c1ccc(-c2cccc(CN3C[C@H](O)C[C@]34CCN(C3CCCCC3)C4=O)c2)cn1	> 37 nM
2. CC1(O)CN(Cc2ccc(Cl)cc2)[C@@]2(CCN(C3CCCCC3)C2=O)C1 (some centres undefined)	> 37 nM
3. CC(C1CC1)N1C[C@H](O)C[C@]12CCN(C1CCCCC1)C2=O (some centres undefined)	> 37 nM
4. O=C1N(C2CCCCC2)CC[C@]12C[C@@H](O)CN2Cc1ccc(Cl)cc1	6.2 nM
5. O=C1N(C2CCCCC2)CC[C@]12C[C@@H](O)CN2Cc1ccc(-c2ccncc2)cc1	6.6 nM
6. O=C1N(C2CCCCC2)CC[C@]12C[C@H](F)CN2Cc1ccc(Cl)cc1	5.1 nM

Please state IC50 for every molecule in the list that follows.
1. CNC(=O)c1ccc(-c2ccc(CN3C[C@@H](F)C[C@]34CCN(C3CCCCC3)C4=O)cc2)cn1
2. O=C1N(C2CCCCC2)CC[C@]12C[C@@H](O)CN2Cc1ccc(-c2ccc(F)cc2)nc1
3. O=C1N(C2CCCCC2)CC[C@@]12C[C@H](O)CN2Cc1ccc(Cl)cc1

Response:
1: 5.9 nM; 2: > 37 nM; 3: > 37 nM
